Parameter ED50: see the listing below.
- Tested on: Rattus norvegicus
- ASSAY_REMARKS: Antagonistic activity against amphetamine-induced stereotypy in rats; (5 mg/kg administered ip 1 hr after the test compound).
- Assay type: functional
Numbers only here, please. The scale is mg/kg.

COMPOUND	ED50 / mg/kg
O[C@H](CCCN1CC[C@H]2[C@H](C1)c1cc(F)ccc1N2c1ccc(F)cc1)c1ccc(F)cc1 (stereo in doubt; 2a)	0.21

Okay, next one:
Any idea what ED50 was measured for O[C@H](CCCN1CC[C@@H]2[C@@H](C1)c1cc(F)ccc1N2c1ccc(F)cc1)c1ccc(F)cc1 (stereo in doubt; 2c) ?
0.05

###

- EXPERIMENTAL_TARGET: Dopamine receptor
- ASSAY_REMARKS: Inhibition of [3H]spiroperidol (0.5 nM) binding to dopamine receptor from rat striatal membrane.
METRIC_NAME: IC50 (nM)
Numbers only here, please. The scale is nM.

Past entries and their recorded results:
COMPOUND	IC50 (nM)
Cl.OC(CCCN1CCC(N(c2ccc(F)cc2)c2ccc(F)cc2)CC1)c1ccc(F)cc1 (stereo not drawn)	1000
OC1(c2ccc(Cl)c(C(F)(F)F)c2)CCN(CCCC(c2ccc(F)cc2)c2ccc(F)cc2)CC1	62
O[C@H](CCCN1CC[C@@H]2[C@@H](C1)c1cc(F)ccc1N2c1ccc(F)cc1)c1ccc(F)cc1 (stereo in doubt; 2d)	1800
Cl.O=C1CNC(=O)N1CCCCCCN1CC[C@@H]2c3cc(F)ccc3N(c3ccc(F)cc3)[C@H]2C1	14

# query: IC50 | item Cl.O=C1CNC(=O)N1CCCCCCN1CCC2c3cc(F)ccc3N(c3ccc(F)cc3)C2C1 (stereo not drawn) | system: Dopamine receptor
9.4

What about CN1CCC2C(C1)c1cc(F)ccc1N2c1ccc(F)cc1.Cl (stereo not drawn) ?
7.5

What about `Cl.O=C(Nc1ccccc1)OCCN1CC[C@H]2[C@H](C1)c1cc(F)ccc1N2c1ccc(F)cc1` ?
45

What about `Cl.O=C1CNC(=O)N1CCCCCCN1CCc2c(n(-c3ccc(F)cc3)c3ccc(F)cc23)C1` ?
5.8

###

- Species: Rattus norvegicus
- ASSAY_REMARKS: Compound was tested for the antagonistic activity against amphetamine-induced stereotypy in rat.
- Type: functional
METRIC_NAME: ED50 (mg/kg)
Numbers only here, please. The scale is mg/kg.

Past entries and their recorded results:
MOLECULE	METRIC_NAME	MEASURED
CN1CCC2C(C1)c1cc(F)ccc1N2c1ccc(F)cc1.Cl (configuration not stated)	ED50	0.3
CC(=O)NCCCCN1CCC2C(C1)c1cc(F)ccc1N2c1ccc(F)cc1.Cl (configuration not stated)	ED50	0.006

Any idea what ED50 was measured for Cl.O=C(O)CCCN1CCC2C(C1)c1cc(F)ccc1N2c1ccc(F)cc1 (configuration not stated) ?
0.36

What about Cl.O=C(NCCCCCCN1CCC2C(C1)c1cc(F)ccc1N2c1ccc(F)cc1)c1ccccc1 (configuration not stated) ?
0.1

###

- EXPERIMENTAL_TARGET: Dopamine receptor
- ASSAY_REMARKS: Inhibition of [3H]spiroperidol (0.5 nM) binding to dopamine receptor from rat striatal membrane.
Parameter IC50: see the listing below.
Numbers only here, please. The scale is nM.

Past entries and their recorded results:
COMPOUND	EXPERIMENTAL_TARGET	MEASURED
OC(CCCN1CCc2c(c3cc(F)ccc3n2-c2ccc(F)cc2)C1)c1ccc(F)cc1 (stereo not drawn)	Dopamine receptor	12
O[C@H](CCCN1CC[C@H]2[C@H](C1)c1cc(F)ccc1N2c1ccc(F)cc1)c1ccc(F)cc1 (stereo in doubt; 2b)	Dopamine receptor	350
Fc1ccc(N2c3ccc(F)cc3[C@H]3CNCC[C@@H]32)cc1	Dopamine receptor	6.7
O[C@H](CCCN1CC[C@@H]2[C@@H](C1)c1cc(F)ccc1N2c1ccc(F)cc1)c1ccc(F)cc1 (stereo in doubt; 2c)	Dopamine receptor	22
O=C(NCCN1CC[C@H]2[C@H](C1)c1cc(F)ccc1N2c1ccc(F)cc1)C(CO)c1ccccc1 (stereo partly drawn)	Dopamine receptor	35
Cl.O=C(CCCN1CC[C@H]2[C@H](C1)c1cc(F)ccc1N2c1ccc(F)cc1)Nc1ccccc1	Dopamine receptor	19

Any idea what IC50 was measured for Cl.O=C(O)CCCN1CCC2C(C1)c1cc(F)ccc1N2c1ccc(F)cc1 (stereo not drawn) ?
140

###

- EXPERIMENTAL_TARGET: Dopamine receptor
- ASSAY_REMARKS: Inhibition of [3H]spiroperidol (0.5 nM) binding to dopamine receptor from rat striatal membrane.
Parameter IC50: see the listing below.
Numbers only here, please. The scale is nM.

Past entries and their recorded results:
MOLECULE	IC50 [nM]
O=C1CNC(=O)N1CCN1CCC2c3cc(F)ccc3N(c3ccc(F)cc3)C2C1 (stereo unspecified)	26
Fc1ccc(-n2c3c(c4cc(F)ccc42)CNCC3)cc1	350

Any idea what IC50 was measured for `Fc1ccc(N2c3ccc(F)cc3[C@@H]3CNCC[C@H]32)cc1` ?
3200

What about Cl.O[C@H](CCCN1CCC2C(C1)c1cc(F)ccc1N2c1ccc(F)cc1)c1ccc(F)cc1 (stereo partly specified) ?
25

What about `Cl.O=C1CNC(=O)N1CCCCCN1CC[C@@H]2c3cc(F)ccc3N(c3ccc(F)cc3)[C@H]2C1` ?
6

What about O[C@H](CCCN1CC[C@H]2[C@H](C1)c1cc(F)ccc1N2c1ccc(F)cc1)c1ccc(F)cc1 (stereo in doubt; 2a) ?
25

###

- Species on record: Rattus norvegicus
- ASSAY_REMARKS: Compound was tested for the antagonistic activity against amphetamine-induced stereotypy in rat.
- Assay type: functional
Parameter ED50: see the listing below.

Past entries and their recorded results:
MOLECULE	METRIC_NAME	MEASURED
CN1CCc2c(c3cc(F)ccc3n2-c2ccc(F)cc2)C1.Cl	ED50	> 1 mg/kg
CC(=O)NCCCCN1CCc2c(c3cc(F)ccc3n2-c2ccc(F)cc2)C1.Cl	ED50	> 3.2 mg/kg

Okay, next one:
Any idea what ED50 was measured for `Cl.O=C(NCCCCCCN1CCc2c(c3cc(F)ccc3n2-c2ccc(F)cc2)C1)c1ccccc1` ?
> 10 mg/kg

###

- EXPERIMENTAL_TARGET: Dopamine receptor
- ASSAY_REMARKS: Inhibition of [3H]spiroperidol (0.5 nM) binding to dopamine receptor from rat striatal membrane.
Parameter IC50: see the listing below.
Numbers only here, please. The scale is µM.

COMPOUND	IC50, µM
Cl.O=C1CNC(=O)N1CCCCN1CC[C@@H]2c3cc(F)ccc3N(c3ccc(F)cc3)[C@H]2C1	0.012

# query: IC50 | item `Cl.O=C(CCCN1CCC(N(c2ccc(F)cc2)c2ccc(F)cc2)CC1)c1ccc(F)cc1` | system: Dopamine receptor
0.068

What about `CC(=O)NCCCCN1CCc2c(c3cc(F)ccc3n2-c2ccc(F)cc2)C1.Cl` ?
0.054

What about O=C1CNC(=O)N1CCCN1CCC2c3cc(F)ccc3N(c3ccc(F)cc3)C2C1 (stereo not given) ?
0.014

What about `Cl.O=C(NCCCCCCN1CCc2c(c3cc(F)ccc3n2-c2ccc(F)cc2)C1)c1ccccc1` ?
0.0085

What about `O=C(CCCN1CC[C@H]2[C@H](C1)c1cc(F)ccc1N2c1ccc(F)cc1)NC1CCCCC1` ?
0.012

###

Parameter IC50: see the listing below.
- EXPERIMENTAL_TARGET: Dopamine receptor
- ASSAY_REMARKS: Inhibition of [3H]spiroperidol (0.5 nM) binding to dopamine receptor from rat striatal membrane.
Numbers only here, please. The scale is nM.

Past entries and their recorded results:
COMPOUND	MEASURED
CC(=O)NCCCCN1CCC2C(C1)c1cc(F)ccc1N2c1ccc(F)cc1.Cl (centres undefined)	13
Cl.O=C(NCCCCCCN1CCC2C(C1)c1cc(F)ccc1N2c1ccc(F)cc1)c1ccccc1 (centres undefined)	13

Okay, next one:
Any idea what IC50 was measured for `OC(CCN1CC[C@H]2[C@H](C1)c1cc(F)ccc1N2c1ccc(F)cc1)(c1ccccc1)c1ccccc1` ?
220
